Values from patent US10479780B2

- tested.system: human Yes1 enzyme (Homo sapiens, UniProt P07947)
- Construct: made in house
- Sequence (P07947 whole entry): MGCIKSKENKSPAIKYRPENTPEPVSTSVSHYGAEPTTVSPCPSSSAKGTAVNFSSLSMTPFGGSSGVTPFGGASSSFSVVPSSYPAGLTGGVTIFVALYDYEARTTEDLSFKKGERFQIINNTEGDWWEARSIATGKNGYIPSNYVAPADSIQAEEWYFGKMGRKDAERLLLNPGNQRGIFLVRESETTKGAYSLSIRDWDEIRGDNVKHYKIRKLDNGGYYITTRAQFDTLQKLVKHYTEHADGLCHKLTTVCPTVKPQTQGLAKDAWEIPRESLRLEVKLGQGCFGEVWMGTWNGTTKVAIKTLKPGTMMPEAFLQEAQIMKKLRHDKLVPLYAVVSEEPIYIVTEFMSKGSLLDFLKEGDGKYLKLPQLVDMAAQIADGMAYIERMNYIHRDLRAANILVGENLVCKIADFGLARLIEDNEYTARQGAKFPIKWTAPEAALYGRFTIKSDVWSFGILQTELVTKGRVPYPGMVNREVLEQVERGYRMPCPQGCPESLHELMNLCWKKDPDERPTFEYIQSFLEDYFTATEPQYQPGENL
- test.details: Yes1 enzyme inhibitory activity (time-resolved fluorometry, biotinylated peptide phosphorylation)
- Type: biochemical
- assay.conditions: biotinylated peptide phosphorylation, read-out: YES_IC50
readout.type: IC50 (nM)

Cc1cc(Oc2ccccc2Cl)cc(F)c1-n1ncc(C(=O)c2cc3cc(NS(C)(=O)=O)c(F)cc3[nH]2)c1N = 0.89
Cc1cc2cc(C(=O)c3cnn(-c4cnc(Oc5cccc(F)c5F)cc4C)c3N)[nH]c2cc1NS(C)(=O)=O = 3.2
Cc1cc(Oc2cc(F)ccc2F)cc(F)c1-n1ncc(C(=O)c2cc3cc(F)c(NS(C)(=O)=O)cc3[nH]2)c1N = 2
Cc1cc(Oc2ccccc2F)ccc1-n1ncc(C(=O)c2cc3cc(F)c(NS(=O)(=O)NC4(C)COC4)cc3[nH]2)c1N = 0.55
Cc1cc2cc(C(=O)c3cnn(-c4c(C)cc(Oc5cc(F)ccc5F)cc4F)c3N)[nH]c2cc1NS(C)(=O)=O = 4.3

1: Cc1cc(Oc2ccccc2F)ncc1-n1ncc(C(=O)c2cc3cc(Cl)c(NS(C)(=O)=O)cc3[nH]2)c1N
2: Cc1cc2[nH]c(C(=O)c3cnn(-c4ccc(Oc5cccc(F)c5F)cc4C)c3N)cc2cc1NS(C)(=O)=O
3: Cc1cc(Oc2ccccc2F)ncc1-n1ncc(C(=O)c2cc3cc(F)c(NS(=O)(=O)c4cccc(Cl)c4)cc3[nH]2)c1N
Request: Order the items by recorded IC50; the first position goes to the largest value. Reply format: the labels, ordered as requested.
Result: 3, 1, 2
(3: 16 nM, 1: 0.81 nM, 2: 0.2 nM)
